Reported relative induction of RFP reporter values are given for each entry in this list.
Tested on: HpdA/P_H16_RS24175 L-tyrosine biosensor (pEH158)
Test: relative induction of RFP reporter vs primary effector (background-corrected); higher = stronger activation of the biosensor
Conditions: inducer concentration 5 mM; 6 h; Cupriavidus necator H16; minimal medium + 0.4% gluconate

molecule: N[C@@H](Cc1c[nH]c2ccccc12)C(=O)O [L-tryptophan]
system tested: HpdA/P_H16_RS24175 L-tyrosine biosensor (pEH158)
relative induction of RFP reporter / %: 0.00902

molecule: O=C(O)C1=CCCCC1 [cyclohexene-1-carboxylate]
system tested: HpdA/P_H16_RS24175 L-tyrosine biosensor (pEH158)
relative induction of RFP reporter / %: 0.0248

molecule: O=C(O)C1=C[C@@H](O)[C@@H](O)[C@H](O)C1 [shikimate]
system tested: HpdA/P_H16_RS24175 L-tyrosine biosensor (pEH158)
relative induction of RFP reporter / %: 0.167

molecule: O=C(O)C1CCCC1 [cyclopentane-1-carboxylate]
system tested: HpdA/P_H16_RS24175 L-tyrosine biosensor (pEH158)
relative induction of RFP reporter / %: 0.108

molecule: NCC(=O)O [glycine]
system tested: HpdA/P_H16_RS24175 L-tyrosine biosensor (pEH158)
relative induction of RFP reporter / %: -0.0404

molecule: Oc1ccccc1O [catechol]
system tested: HpdA/P_H16_RS24175 L-tyrosine biosensor (pEH158)
relative induction of RFP reporter / %: 0.0942

molecule: Oc1ccccc1 [phenol]
system tested: HpdA/P_H16_RS24175 L-tyrosine biosensor (pEH158)
relative induction of RFP reporter / %: -0.0814

molecule: OC[C@@H](O)[C@@H](O)[C@H](O)[C@H](O)CO [D-mannitol]
system tested: HpdA/P_H16_RS24175 L-tyrosine biosensor (pEH158)
relative induction of RFP reporter / %: -0.117

molecule: O=C(O)c1cc(=O)c2ccccc2[nH]1 [kynurenate]
system tested: HpdA/P_H16_RS24175 L-tyrosine biosensor (pEH158)
relative induction of RFP reporter / %: -0.151

molecule: O=C(O)CC(=O)C(=O)O [oxaloacetate]
system tested: HpdA/P_H16_RS24175 L-tyrosine biosensor (pEH158)
relative induction of RFP reporter / %: -0.115

molecule: CC(N)CC(=O)O (configuration not stated) [3-aminobutanoate]
system tested: HpdA/P_H16_RS24175 L-tyrosine biosensor (pEH158)
relative induction of RFP reporter / %: -0.135

molecule: O=CC(=O)O [glyoxylate]
system tested: HpdA/P_H16_RS24175 L-tyrosine biosensor (pEH158)
relative induction of RFP reporter / %: -0.0503

----------
Test system: heterologous itaconate-inducible system
Test: relative induction of RFP reporter vs primary effector; higher = stronger activation
Conditions: inducer concentration 5 mM; 6 h; Cupriavidus necator H16; minimal medium + 0.4% gluconate
Reported relative induction of RFP reporter values are given for each entry in this list.
property: relative induction of RFP reporter (%)

molecule: Nc1ccccc1C(=O)C[C@H](N)C(=O)O
readout number: -0.412
//
molecule: O=c1[nH]c(=O)c2nc[nH]c2[nH]1
readout number: 0.00052
//
molecule: CC(=O)C(C)O (stereo not given)
readout number: 0.0808
//
molecule: C=CC(=O)O [acrylate]
readout number: 0.117
//
molecule: N[C@@H](Cc1ccc(O)cc1)C(=O)O
readout number: 0.264
//
molecule: O=C(O)c1ccccc1 [benzoate]
readout number: -0.0216
//
molecule: O=C(O)CS(=O)(=O)O [sulfonatoacetate]
readout number: 0.693
//
molecule: NCCC(=O)O
readout number: -0.489
//
molecule: OC1OC[C@H](O)[C@H](O)[C@H]1O (mixture of isomers)
readout number: 0.00235
//
molecule: O=C(O)c1ccc(O)c(O)c1 [3,4-dihydroxybenzoate]
readout number: 0.251

----------
System: HpdR/P_H16_RS18295 3-hydroxypropanoate biosensor (pEH010)
Assay: relative induction of RFP reporter vs primary effector (background-corrected); higher = stronger activation of the biosensor
Conditions: inducer concentration 5 mM; 6 h; Cupriavidus necator H16; minimal medium + 0.4% gluconate

molecule: O=C(O)C1=CCCCC1 [cyclohexene-1-carboxylate]
uom: %
relative induction of RFP reporter: -0.493
--
molecule: OC[C@@H](O)[C@@H](O)[C@H](O)[C@H](O)CO
uom: %
relative induction of RFP reporter: -0.0887
--
molecule: NCCc1ccc(O)c(O)c1
uom: %
relative induction of RFP reporter: 0.166
--
molecule: O=C(O)CNC(=O)c1ccccc1
uom: %
relative induction of RFP reporter: -0.376
--
molecule: O=C(O)[C@@H](O)[C@@H](O)[C@H](O)[C@@H](O)C(=O)O [glucarate]
uom: %
relative induction of RFP reporter: 0.059
--
molecule: NCCS(=O)(=O)O
uom: %
relative induction of RFP reporter: -0.142
--
molecule: Oc1cccc(O)c1
uom: %
relative induction of RFP reporter: -0.13
--
molecule: O=C(O)c1cccnc1 [nicotinate]
uom: %
relative induction of RFP reporter: 0.0215
--
molecule: O=S(=O)(O)CCO [isethionate]
uom: %
relative induction of RFP reporter: -0.0757
--
molecule: C[C@@H](O)C(=O)O [D-lactate]
uom: %
relative induction of RFP reporter: -0.134
--
molecule: O=C(O)CC(CC(=O)O)C(=O)O [tricarballylate]
uom: %
relative induction of RFP reporter: -0.311
--
molecule: O=C(O)CCC(=O)O [succinate]
uom: %
relative induction of RFP reporter: -0.187

----------
Reported relative induction of RFP reporter values are given for each entry in this list.
Tested on: heterologous acrylate-inducible system
Assay: relative induction of RFP reporter vs primary effector; higher = stronger activation
Details: inducer concentration 5 mM; 6 h; Cupriavidus necator H16; minimal medium + 0.4% gluconate

molecule: O=c1[nH]c(=O)c2nc[nH]c2[nH]1 [xanthine]
relative induction of RFP reporter (%): -1.68

molecule: O=C(O)c1ccccc1 [benzoate]
relative induction of RFP reporter (%): -1.5

molecule: N[C@@H](Cc1ccccc1)C(=O)O [L-phenylalanine]
relative induction of RFP reporter (%): -1.94

molecule: O=C(O)C(O)C(O)C(=O)O (centres undefined) [tartrate]
relative induction of RFP reporter (%): -0.36

molecule: C=C(CC(=O)O)C(=O)O [itaconate]
relative induction of RFP reporter (%): -0.778

molecule: N[C@@H](Cc1ccc(O)cc1)C(=O)O [L-tyrosine]
relative induction of RFP reporter (%): -2.03

molecule: O=C(O)CS(=O)(=O)O [sulfonatoacetate]
relative induction of RFP reporter (%): -0.561

molecule: CC(=O)C(C)O (centres undefined) [acetoin]
relative induction of RFP reporter (%): -1.85

molecule: O=C(O)c1ccccc1O [salicylate]
relative induction of RFP reporter (%): -1.06

----------
Test system: AraC/P_araBAD L-arabinose biosensor (pEH176)
Assay: relative induction of RFP reporter vs primary effector (background-corrected); higher = stronger activation of the biosensor
Settings: inducer concentration 5 mM; 6 h; Cupriavidus necator H16; minimal medium + 0.4% gluconate
Reported relative induction of RFP reporter values are given for each entry in this list.
property: relative induction of RFP reporter (%)

compound: O=C(O)c1c(O)cccc1O [2,6-dihydroxybenzoate]
uom: %
readout number: 0.019
//
compound: OC[C@@H](O)[C@@H](O)[C@H](O)[C@H](O)CO [D-mannitol]
uom: %
readout number: -0.00626
//
compound: O=C(O)CC(=O)C(=O)O [oxaloacetate]
uom: %
readout number: -0.00919
//
compound: O=C(O)CNC(=O)c1ccccc1 [N-benzoylglycine]
uom: %
readout number: -0.0115
//
compound: O=C(O)c1ccc(O)cc1 [4-hydroxybenzoate]
uom: %
readout number: -0.0125
//
compound: N[C@@H](CC(=O)O)C(=O)O [L-aspartate]
uom: %
readout number: -0.0179
//
compound: Cn1c(=O)c2c(ncn2C)n(C)c1=O [caffeine]
uom: %
readout number: 0.0778
//
compound: NCC(O)C(=O)O (configuration not stated) [3-amino-2-hydroxypropanoate]
uom: %
readout number: 0.017
//
compound: O=C(O)C[C@H](O)C(=O)O [L-malate]
uom: %
readout number: 0.0102
//
compound: Oc1ccc(O)cc1 [hydroquinone]
uom: %
readout number: 0.188
//
compound: NCC(=O)O [glycine]
uom: %
readout number: -0.0181
//
compound: O=C(O)CC(CC(=O)O)C(=O)O [tricarballylate]
uom: %
readout number: -0.0168
//
compound: O=C(O)c1cccnc1 [nicotinate]
uom: %
readout number: 0.00152
//
compound: CCCC(=O)O [butyric acid]
uom: %
readout number: -0.0107
//
compound: O=C(O)C1CCCC1 [cyclopentane-1-carboxylate]
uom: %
readout number: 0.014
//
compound: NCCS(=O)(=O)O [taurine]
uom: %
readout number: -0.0412
//
compound: NC(=O)CC[C@H](N)C(=O)O [L-glutamine]
uom: %
readout number: -0.022
//
compound: O=C(O)[C@@H](O)[C@@H](O)[C@H](O)[C@@H](O)C(=O)O [glucarate]
uom: %
readout number: -0.00794
//
compound: O=C(O)C(O)C(=O)O [tartronic acid]
uom: %
readout number: -0.0176
//
compound: CC(=O)CCC(=O)O [levulinic acid]
uom: %
readout number: 0.00636
//
compound: O=C(O)/C=C/C(=O)O [fumarate]
uom: %
readout number: 0.0135
//
compound: CCC(=O)O [propanoate]
uom: %
readout number: -0.00959
//
compound: NCCc1ccc(O)c(O)c1 [dopamine]
uom: %
readout number: -0.00264
//
compound: Oc1ccccc1O [catechol]
uom: %
readout number: -0.00935
//
compound: NCC(N)C(=O)O (configuration not stated) [2,3-diaminopropanoate]
uom: %
readout number: 0.013
//
compound: O=C(O)CCC(=O)O [succinate]
uom: %
readout number: -0.00365
//
compound: NC(C(=O)O)c1ccccc1 (racemic) [D,L-2-phenylglycine]
uom: %
readout number: -0.0373
//
compound: O=c1[nH]cnc2nc[nH]c12 [hypoxanthine]
uom: %
readout number: 0.0138
//
compound: O=C(O)c1cc(=O)c2ccccc2[nH]1 [kynurenate]
uom: %
readout number: -0.028
//
compound: C[C@H](O)C(=O)O [L-lactate]
uom: %
readout number: -0.0302
//
compound: O=C(O)/C=C\C=C/C(=O)O [cis,cis-muconate]
uom: %
readout number: -0.0203
//
compound: O=C(O)C(O)c1ccccc1 (configuration not stated) [mandelic acid]
uom: %
readout number: 0.0229
